- system_under_test: Aurora kinase B (Homo sapiens)
- Sequence (Q96GD4 whole entry): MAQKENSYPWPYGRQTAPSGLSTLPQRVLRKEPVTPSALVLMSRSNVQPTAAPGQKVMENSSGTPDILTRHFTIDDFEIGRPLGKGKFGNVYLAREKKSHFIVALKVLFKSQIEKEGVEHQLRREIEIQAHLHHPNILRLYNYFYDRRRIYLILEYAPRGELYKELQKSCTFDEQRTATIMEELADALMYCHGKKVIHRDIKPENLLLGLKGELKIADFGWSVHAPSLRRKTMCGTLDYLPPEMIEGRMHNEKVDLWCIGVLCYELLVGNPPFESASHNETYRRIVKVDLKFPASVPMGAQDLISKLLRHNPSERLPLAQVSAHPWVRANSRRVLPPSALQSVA
- experiment_description: Inhibition of recombinant full length human N-terminal GST-tagged Aurora B expressed in baculovirus infected Sf9 cells using myelin basic protein as substrate after 60 mins by ADP-Glo luminescence assay
Task for the reader: assign each of the following molecules its reported pIC50.
The read-out pIC50 is expressed as -log10 of concentration in moles per litre.

The reported pIC50 of the molecule `O=C(Nc1ccc(Br)cc1)Nc1ccc(CNc2nc3ccc(OCCN4CCOCC4)cc3s2)cc1` was 7.05

The reported pIC50 of the molecule `O=C(Nc1ccc(CNc2nc3ccc(OCCN4CCOCC4)cc3s2)cc1)c1ccc(Cl)cc1` was 5.52

The reported pIC50 of the molecule `O=C(Nc1cccc(CNc2nc3ccc(OCCN4CCOCC4)cc3s2)c1)c1ccc(F)cc1` was 5.05

The reported pIC50 of the molecule `O=C(Nc1ccc(F)cc1)Nc1ccc(CNc2nc3ccc(OCCN4CCOCC4)cc3s2)cc1` was 6.15

The reported pIC50 of the molecule `O=C(Nc1ccccc1)Nc1ccc(CNc2nc3ccc(OCCN4CCOCC4)cc3s2)cc1` was 6.57
